All figures here come from paper PMC9482650.

biological target: Inadl_2, Q8NI35; assay: holdup assay; design: key: below the threshold = too weak to quantify, mostly under pKd 3.1 to 4; conditions: plain residues with an end cap or a label only (N-terminal biotin on a linker: ado-ado)
Sequence (Q8NI35 238-335): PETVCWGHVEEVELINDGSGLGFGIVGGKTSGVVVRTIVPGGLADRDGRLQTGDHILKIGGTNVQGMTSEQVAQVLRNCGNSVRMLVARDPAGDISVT
Recorded Metric: pKd

A selection of reference data follows.
>>> df
                                     binder          test_result
0  KRPEMTSSSV [MUC3A, MUC3B, Q02505;Q9H195]  below the threshold
1                DGVNEKVSCV [HTR2A, P28223]  below the threshold
2                QLSFNTDTLC [ABCA2, Q9BZC7]  below the threshold
3                EIPAQSPTCV [FZD10, Q9ULW2]                 3.58
4                VLYPREGTEV [FOXI1, Q12951]  below the threshold
5                 TRKRSGEAAV [PFKM, P08237]  below the threshold

Entry EKCGKEFSEF [PRKACA, P17612] has what pKd? below the threshold

Note, next up: PPGKHLVTEV [KCNA7, Q96RP8] below the threshold

Note, next up: VKRNSKETVV [MARCHF3, Q86UD3] below the threshold
